Details: 303.2 K; 101.33 kPa; Liquid; Concentric cylinders viscometry
MEASURED_ENDPOINT: viscosity (mPa·s)
Numbers only, in mPa·s.

Sample records with viscosity:
>  <MOLECULE>
CO

>  <viscosity / mPa·s>
0.51

$$$$
>  <MOLECULE>
O

>  <viscosity / mPa·s>
0.8

$$$$
>  <MOLECULE>
NCCO

>  <viscosity / mPa·s>
14.47

$$$$

# evaluate next
Query block: Fill in: viscosity of OCCNCCO is ___
Result block: 381.21

###

Conditions: 323.2 K; 101.33 kPa; Liquid; Concentric cylinders viscometry
MEASURED_ENDPOINT: viscosity (mPa·s)
Numbers only, in mPa·s.

Sample records with viscosity:
>  <MOLECULE>
CO

>  <MEASURED_VALUE>
0.39

$$$$
>  <MOLECULE>
OCCNCCO

>  <MEASURED_VALUE>
105.98

$$$$
>  <MOLECULE>
O

>  <MEASURED_VALUE>
0.55

$$$$

Query block: Fill in: viscosity of NCCO is ___
Result block: 6.79
